# Tested on: MDR1
# Experiment notes: MDCK-MDR1 permeability assay (BBB penetration potential)
# Format: in vitro ADME
# Stated conditions: dog, MDCK-MDR1, pH 7.4, MDCK-MDR1: Efflux
Observed property: efflux ratio at 120 min, 5 μM
Output spec: single numeric token, no unit.

Memo: N#Cc1ccc(-c2ccc(O[C@H]3C[C@@H]4CCC[C@@H](N4)[C@H]3F)nn2)c(O)c1 (single isomer, unassigned) , reported efflux ratio at 120 min, 5 μM: 8

Memo: Cn1cc(-c2cc(O)c(-c3ccc(O[C@H]4C[C@@H]5CCC(N5)[C@H]4F)nn3)cn2)cn1 (single isomer, unassigned) , reported efflux ratio at 120 min, 5 μM: 38

Memo: Oc1cc(-c2cn[nH]c2)ccc1-c1ccc(O[C@@H]2C[C@H]3C[C@H](F)C[C@@H](C2)N3)nn1 , reported efflux ratio at 120 min, 5 μM: 54

Memo: Oc1cc2cccnc2cc1-c1ccc(O[C@H]2C[C@@H]3CCC[C@@H](N3)[C@H]2F)nn1 (single isomer, unassigned) , reported efflux ratio at 120 min, 5 μM: 6

Memo: Cc1nnc(-c2ccc(-c3ccc(O[C@H]4C[C@@H]5CCC[C@@H](N5)[C@H]4F)nn3)c(O)c2)s1 (single isomer, unassigned) , reported efflux ratio at 120 min, 5 μM: 9

Memo: Cn1ccc2cc(-c3ccc(O[C@H]4CC5CCC[C@@H](N5)[C@H]4F)nn3)c(O)cc2c1=O (single isomer, unassigned) , reported efflux ratio at 120 min, 5 μM: 23

====

# System: MDR1-MDCK cell monolayers
# Experiment notes: MDCK-MDR1 permeability assay (BBB penetration potential)
# Assay type: in vitro ADME
# Stated conditions: dog, MDCK-MDR1, 120 min, 5 μM, pH 7.4
Classify as follows. Reported MDCK-MDR1: % Recov B-A greater than or equal to 80%: yes (1). Reported MDCK-MDR1: % Recov B-A below: no (0).

Exam item: decide whether the reported MDCK-MDR1: % Recov B-A for N#Cc1ccc(-c2ccc(O[C@@H]3C[C@H]4CC[C@H](N4)[C@@H]3F)nn2)c(O)c1 (single isomer, unassigned) [111-ENT1] is at least 80%.
yes (1)

Exam item: decide whether the reported MDCK-MDR1: % Recov B-A for Oc1cc2ncccc2cc1-c1ccc(O[C@@H]2C[C@H]3CCC[C@H](N3)[C@@H]2F)nn1 (single isomer, unassigned) [103-ENT1] is at least 80%.
yes (1)

Exam item: decide whether the reported MDCK-MDR1: % Recov B-A for Oc1cc(-c2ccnnc2)ccc1-c1ccc(O[C@H]2C[C@@H]3CCC[C@@H](N3)[C@H]2F)nn1 (single isomer, unassigned) [87-ENT2] is at least 80%.
yes (1)

Exam item: decide whether the reported MDCK-MDR1: % Recov B-A for Cn1ccc(-c2ccc(-c3ccc(O[C@@H]4C[C@H]5CCC[C@H](N5)[C@@H]4F)nn3)c(O)c2)nc1=O (single isomer, unassigned) [107-ENT1] is at least 80%.
yes (1)

Exam item: decide whether the reported MDCK-MDR1: % Recov B-A for C[C@]12CC[C@](C)(N1)[C@H](F)[C@H](Oc1ccc(-c3ccc(-c4cn[nH]c4)cc3O)nn1)C2 (single isomer, unassigned) [2-ENT1] is at least 80%.
yes (1)

Exam item: decide whether the reported MDCK-MDR1: % Recov B-A for Cn1cnc2cc(O)c(-c3ccc(O[C@H]4C[C@]5(C)CCC[C@@](C)(N5)[C@H]4F)nn3)cc2c1=O (single isomer, unassigned) [133-ENT1] is at least 80%.
yes (1)

Exam item: decide whether the reported MDCK-MDR1: % Recov B-A for Cn1ccc2cc(-c3ccc(O[C@@H]4C[C@@]5(C)CC[C@](C)(N5)[C@@H]4F)nn3)c(O)cc2c1=O (single isomer, unassigned) [127-ENT2] is at least 80%.
yes (1)

Exam item: decide whether the reported MDCK-MDR1: % Recov B-A for Cn1cc(-c2ccc(-c3ccc(O[C@H]4C[C@@H]5CCC[C@@H](N5)[C@@H]4F)nn3)c(O)c2)cn1 (single isomer, unassigned) [49-ENT2] is at least 80%.
no (0)

Exam item: decide whether the reported MDCK-MDR1: % Recov B-A for Cc1ccc(-c2ccc(-c3ccc(O[C@@H]4C[C@H]5CCC[C@H](N5)[C@@H]4F)nn3)c(O)c2)cn1 (single isomer, unassigned) [67-ENT1] is at least 80%.
no (0)

Exam item: decide whether the reported MDCK-MDR1: % Recov B-A for Cc1ncn(-c2ccc(-c3ccc(O[C@H]4C[C@@H]5CCC[C@@H](N5)[C@H]4F)nn3)c(O)c2)n1 (single isomer, unassigned) [70-ENT2] is at least 80%.
yes (1)

Exam item: decide whether the reported MDCK-MDR1: % Recov B-A for Oc1cc2ccncc2cc1-c1ccc(O[C@@H]2C[C@H]3CCC[C@H](N3)[C@@H]2F)nn1 (single isomer, unassigned) [81-ENT1] is at least 80%.
no (0)

Exam item: decide whether the reported MDCK-MDR1: % Recov B-A for COc1cc(-c2ccc(-c3ccc(O[C@@H]4C[C@H]5CCC[C@H](N5)[C@@H]4F)nn3)c(O)c2)cnn1 (single isomer, unassigned) [76-ENT1] is at least 80%.
no (0)

Exam item: decide whether the reported MDCK-MDR1: % Recov B-A for Oc1cc(-c2ccc3nccn3c2)ccc1-c1ccc(O[C@@H]2C[C@H]3CCC[C@H](N3)[C@@H]2F)nn1 (single isomer, unassigned) [84-ENT1] is at least 80%.
no (0)

Exam item: decide whether the reported MDCK-MDR1: % Recov B-A for Cc1ccc(-c2ccc(-c3ccc(O[C@@H]4C[C@H]5CCC[C@H](N5)[C@@H]4F)nn3)c(O)c2)nn1 (single isomer, unassigned) [75-ENT1] is at least 80%.
yes (1)

Exam item: decide whether the reported MDCK-MDR1: % Recov B-A for Cc1ccc(-c2ccc(-c3ccc(O[C@H]4C[C@@H]5CCC[C@@H](N5)[C@H]4F)nn3)c(O)c2)o1 (single isomer, unassigned) [99-ENT2] is at least 80%.
no (0)

Exam item: decide whether the reported MDCK-MDR1: % Recov B-A for Cn1ccc(=O)c2cc(-c3ccc(O[C@@H]4C[C@@]5(C)CCC[C@](C)(N5)[C@@H]4F)nn3)c(O)cc21 (single isomer, unassigned) [131-ENT2] is at least 80%.
yes (1)

Exam item: decide whether the reported MDCK-MDR1: % Recov B-A for Cc1ncc(-c2ccc(-c3ccc(O[C@H]4C[C@@H]5CCC[C@@H](N5)[C@H]4F)nn3)c(O)c2)s1 (single isomer, unassigned) [96-ENT2] is at least 80%.
no (0)

Exam item: decide whether the reported MDCK-MDR1: % Recov B-A for Cn1cc(-c2cc(O)c(-c3ccc(O[C@H]4C[C@@H]5CC[C@@H](N5)[C@H]4F)nn3)cc2F)cn1 (single isomer, unassigned) [61-ENT2] is at least 80%.
no (0)

Exam item: decide whether the reported MDCK-MDR1: % Recov B-A for Cn1cc(-c2ccc(-c3ccc(O[C@@H]4C[C@H]5CCC[C@H](N5)[C@@H]4F)nn3)c(O)c2)c(F)n1 (single isomer, unassigned) [109-ENT1] is at least 80%.
no (0)

Exam item: decide whether the reported MDCK-MDR1: % Recov B-A for COc1cc(-c2ccc(-c3ccc(O[C@@H]4C[C@@]5(C)CC[C@](C)(N5)[C@@H]4F)nn3)c(O)c2)cnn1 (single isomer, unassigned) [157-ENT1] is at least 80%.
yes (1)

Exam item: decide whether the reported MDCK-MDR1: % Recov B-A for Oc1cc(-c2cn[nH]c2)ccc1-c1ccc(O[C@@H]2C[C@H]3CC(F)(F)[C@@H](C2)N3)nn1 (single isomer, unassigned) [46-ENT2] is at least 80%.
yes (1)

Exam item: decide whether the reported MDCK-MDR1: % Recov B-A for Oc1cc(-c2cn[nH]c2)ccc1-c1ccc(O[C@@H]2C[C@H]3CC[C@H](N3)[C@H]2F)nn1 (single isomer, unassigned) [43-ENT2] is at least 80%.
yes (1)

====

So I've got a bunch of molecules here, and I need their EC50 values.
# System: mHTT protein
# Experiment notes: mHTT protein assay (2B7-MW1, Mesoscale Discovery)
# Format: cell-based, human
# Stated conditions: GM04724 (CAG 70/20) Huntington's disease patient lymphoblast cells, 48 hours, 2B7-MW1 MSD; read-out: HTT Potency - Protein EC50 mHTT (average)

EC50 of Cc1ccc(-c2ccc(-c3ccc(O[C@H]4C[C@@H]5CCC[C@@H](N5)[C@H]4F)nn3)c(O)c2)o1 (single isomer, unassigned) , assay on mHTT protein, is 101 to 500 nM

EC50 of Oc1cc(-c2ccccn2)ccc1-c1ccc(O[C@H]2C[C@@H]3CCC[C@@H](N3)[C@H]2F)nn1 (single isomer, unassigned) , assay on mHTT protein, is 101 to 500 nM

EC50 of Oc1cc(-c2cn[nH]c2)c(F)cc1-c1ccc(O[C@H]2C[C@@H]3CCC[C@@H](N3)[C@H]2F)nn1 (single isomer, unassigned) , assay on mHTT protein, is 0.01 to 15 nM

EC50 of Cc1cc(-c2ccc(-c3ccc(O[C@@H]4C[C@H]5CCC[C@H](N5)[C@@H]4F)nn3)c(O)c2)cnn1 (single isomer, unassigned) , assay on mHTT protein, is 101 to 500 nM

EC50 of Cn1cc(-c2ccc(-c3ccc(O[C@H]4C[C@@H]5CCC[C@@H](N5)[C@H]4F)nn3)c(O)c2F)cn1 (single isomer, unassigned) , assay on mHTT protein, is 51 to 100 nM

EC50 of Cn1ccc2cc(O)c(-c3ccc(O[C@H]4C[C@]5(C)CC[C@@](C)(N5)[C@H]4F)nn3)cc2c1=O (single isomer, unassigned) , assay on mHTT protein, is 0.01 to 15 nM
